# Study target: human FXR (NR1H4) (Homo sapiens (Human))
# Experimental protocol: Human FXR (NR1H4) Assay (Gal4 promoter driven luciferase reporter, Indigo Bioscience kit)
# Measurement setup: Human FXR (NR1H4) Assay, potency ranges
pEC50: −log10 of the molar value.
Endpoint label: pEC50

Substance smiles	pEC50
CC[C@H]1[C@@H](O)[C@@H]2[C@H](CC[C@]3(C)[C@@H]([C@H](C)CCOC(=O)N4CCC(Cc5ccccc5)CC4)CC[C@@H]23)[C@@]2(C)CC[C@@H](O)C[C@@H]12	6.00 to 7.00
CC[C@H]1[C@@H](O)[C@@H]2[C@H](CC[C@]3(C)[C@@H]([C@H](C)CCOC(=O)NCCN4CCOCC4)CC[C@@H]23)[C@@]2(C)CC[C@@H](O)C[C@@H]12	6.00 to 7.00
CC[C@H]1[C@@H](O)[C@@H]2[C@H](CC[C@]3(C)[C@@H]([C@H](C)CCOC(=O)NS(=O)(=O)c4ccc(OC(F)(F)F)cc4)CC[C@@H]23)[C@@]2(C)CC[C@@H](O)C[C@@H]12	> 7.00

Record lookup: for human FXR (NR1H4) (Homo sapiens (Human)), what pEC50 belongs to CC[C@H]1[C@@H](O)[C@@H]2[C@H](CC[C@]3(C)[C@@H]([C@H](C)CCOC(=O)NS(=O)(=O)C4CCC4)CC[C@@H]23)[C@@]2(C)CC[C@@H](O)C[C@@H]12 ? > 7.00

Look up pEC50 with human FXR (NR1H4) (Homo sapiens (Human)) for this compound: CC[C@H]1[C@@H](O)[C@@H]2[C@H](CC[C@]3(C)[C@@H]([C@H](C)CCOC(=O)NS(=O)(=O)c4cccc(OC)c4)CC[C@@H]23)[C@@]2(C)CC[C@@H](O)C[C@@H]12 6.00 to 7.00

Test system human FXR (NR1H4) (Homo sapiens (Human)); read-out pEC50; what value for CC[C@H]1[C@@H](O)[C@@H]2[C@H](CC[C@]3(C)[C@@H]([C@H](C)CCOC(=O)NCCC4CC4)CC[C@@H]23)[C@@]2(C)CC[C@@H](O)C[C@@H]12 ? 6.00 to 7.00

Notebook entry, human FXR (NR1H4) (Homo sapiens (Human)) assay: pEC50 of CC[C@H]1[C@@H](O)[C@@H]2[C@H](CC[C@]3(C)[C@@H]([C@H](C)CCOC(=O)N[C@H](C(=O)OC)C(C)C)CC[C@@H]23)[C@@]2(C)CC[C@@H](O)C[C@@H]12 = ? 6.00 to 7.00

Any idea what pEC50 came out for CC[C@H]1[C@@H](O)[C@@H]2[C@H](CC[C@]3(C)[C@@H]([C@H](C)CCOC(=O)NS(=O)(=O)c4ccc(C(C)(C)C)cc4)CC[C@@H]23)[C@@]2(C)CC[C@@H](O)C[C@@H]12 on human FXR (NR1H4) (Homo sapiens (Human))? > 7.00

Could you share what pEC50 was measured for CC[C@H]1[C@@H](O)[C@@H]2[C@H](CC[C@]3(C)[C@@H]([C@H](C)CCCOC(=O)N4CCCC4)CC[C@@H]23)[C@@]2(C)CC[C@@H](O)C[C@@H]12 , tested on human FXR (NR1H4) (Homo sapiens (Human))? 6.00 to 7.00

Lab note: need pEC50 for CC[C@H]1[C@@H](O)[C@@H]2[C@H](CC[C@]3(C)[C@@H]([C@H](C)COC(=O)NS(=O)(=O)c4ccc(N5CCCCC5)nc4)CC[C@@H]23)[C@@]2(C)CC[C@@H](O)C[C@@H]12 on human FXR (NR1H4) (Homo sapiens (Human)), anyone have it? > 7.00

Record lookup: for human FXR (NR1H4) (Homo sapiens (Human)), what pEC50 belongs to CC[C@H]1[C@@H](O)[C@@H]2[C@H](CC[C@]3(C)[C@@H]([C@H](C)CCOC(=O)NS(=O)(=O)c4cccc(F)c4)CC[C@@H]23)[C@@]2(C)CC[C@@H](O)C[C@@H]12 ? 6.00 to 7.00

# query: pEC50 | item CC[C@H]1[C@@H](O)[C@@H]2[C@H](CC[C@]3(C)[C@@H]([C@H](C)CCOC(=O)NS(=O)(=O)c4ccccn4)CC[C@@H]23)[C@@]2(C)CC[C@@H](O)C[C@@H]12 | system: human FXR (NR1H4) (Homo sapiens (Human)) 5.00 to 6.00

// map CC[C@H]1[C@@H](O)[C@@H]2[C@H](CC[C@]3(C)[C@@H]([C@H](C)CCOC(=O)NCCc4c[nH]c5ccccc45)CC[C@@H]23)[C@@]2(C)CC[C@@H](O)C[C@@H]12 to recorded pEC50 (system: human FXR (NR1H4) (Homo sapiens (Human))) 6.00 to 7.00

----------
# Study target: human FXR (NR1H4) (Homo sapiens (Human))
# Experimental protocol: Human FXR (NR1H4) Assay (Gal4 promoter driven luciferase reporter, Indigo Bioscience kit)
# Type: cell-based
# Measurement setup: read-out: Efficacy (%)
Endpoint label: Emax
Kindly write the number and append the unit.

// worked examples, Emax included
Substance smiles	Meas value
CC[C@H]1[C@@H](O)[C@@H]2[C@H](CC[C@]3(C)[C@@H]([C@H](C)CCOC(=O)NS(=O)(=O)C4CCC4)CC[C@@H]23)[C@@]2(C)CC[C@@H](O)C[C@@H]12	314%
CC[C@H]1[C@@H](O)[C@@H]2[C@H](CC[C@]3(C)[C@@H]([C@H](C)CCOC(=O)N4CCC(N5CCCCC5)CC4)CC[C@@H]23)[C@@]2(C)CC[C@@H](O)C[C@@H]12	196%

# get_value(readout='Emax', item= CC[C@H]1[C@@H](O)[C@@H]2[C@H](CC[C@]3(C)[C@@H]([C@H](C)CCOC(=O)N[C@H]4CCC[C@H]4O)CC[C@@H]23)[C@@]2(C)CC[C@@H](O)C[C@@H]12 ) 478%

----------
# Study target: human FXR (NR1H4) (Homo sapiens (Human), UniProt Q96RI1)
# Sequence (Q96RI1 whole entry, the tested form may be a part): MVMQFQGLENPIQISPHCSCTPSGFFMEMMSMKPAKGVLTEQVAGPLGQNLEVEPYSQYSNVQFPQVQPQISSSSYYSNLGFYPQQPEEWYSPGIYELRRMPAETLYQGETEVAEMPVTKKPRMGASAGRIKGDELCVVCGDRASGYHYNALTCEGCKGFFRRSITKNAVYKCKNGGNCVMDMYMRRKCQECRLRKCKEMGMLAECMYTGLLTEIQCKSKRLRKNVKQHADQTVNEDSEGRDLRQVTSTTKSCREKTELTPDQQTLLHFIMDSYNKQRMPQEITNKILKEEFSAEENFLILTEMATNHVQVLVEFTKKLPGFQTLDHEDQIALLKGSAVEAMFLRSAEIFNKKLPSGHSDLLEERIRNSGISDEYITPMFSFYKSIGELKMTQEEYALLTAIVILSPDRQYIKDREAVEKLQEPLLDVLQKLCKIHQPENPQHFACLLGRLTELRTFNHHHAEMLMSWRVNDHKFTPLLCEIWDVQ
# Experimental protocol: Human FXR (NR1H4) Assay (Gal4 promoter driven luciferase reporter, Indigo Bioscience kit);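 on Efficacy (%): 100% equals the efficacy of CDCA; efficacy normalized to CDCA set as 100%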
# Assay type: cell-based
# Measurement setup: read-out: Efficacy (%)
# Experimental: ASSAYS Human FXR (NR1H4) Assay Determination of a ligand mediated Gal4 promoter driven transactivation to quantify ligand binding mediated activation of FXR. […] The principle application of this reporter assay system is to quantify functional activity of human FXR. […] Luminescence intensity of the reaction is quantified using a plate-reading luminometer, Envision. […] Cells were incubated for additional 22 hours before luciferase activities were measured. […] Read time may be 0.5 second (500 mSec) per well.
Output True for Emax not less than 200%; output False otherwise.

Please check the record CC[C@H]1[C@@H](O)[C@@H]2[C@H](CC[C@]3(C)[C@@H]([C@H](C)CCOC(=O)NS(=O)(=O)c4ccc5c(c4)OCO5)CC[C@@H]23)[C@@]2(C)CC[C@@H](O)C[C@@H]12 and state if its Emax is at or above 200%. True

Could you tell me if the measured Emax of CC[C@H]1[C@@H](O)[C@@H]2[C@H](CC[C@]3(C)[C@@H]([C@H](C)CCOC(=O)NCCc4ccc(OC)c(OC)c4)CC[C@@H]23)[C@@]2(C)CC[C@@H](O)C[C@@H]12 reaches 200% or more? True

Check if Emax >= 200% (inclusive). Item: CC[C@H]1[C@@H](O)[C@@H]2[C@H](CC[C@]3(C)[C@@H]([C@H](C)COC(=O)N4CCC4)CC[C@@H]23)[C@@]2(C)CC[C@@H](O)C[C@@H]12 False

Quick check, Emax >= 200%? CC[C@H]1[C@@H](O)[C@@H]2[C@H](CC[C@]3(C)[C@@H]([C@H](C)CCOC(=O)N4CCC4)CC[C@@H]23)[C@@]2(C)CC[C@@H](O)C[C@@H]12 True

----------
# Study target: human FXR (NR1H4) (Homo sapiens (Human), UniProt Q96RI1)
# Experimental protocol: Human FXR (NR1H4) Assay (Gal4 promoter driven luciferase reporter, Indigo Bioscience kit)
# Measurement setup: Human FXR (NR1H4) Assay, potency ranges
Endpoint label: EC50

Worked cases, answers included:
Substance smiles	Study target	Endpoint label	Meas value
CC[C@H]1[C@@H](O)[C@@H]2[C@H](CC[C@]3(C)[C@@H]([C@H](C)CCOC(=O)N4CCCCC4)CC[C@@H]23)[C@@]2(C)CC[C@@H](O)C[C@@H]12	human FXR (NR1H4) (Homo sapiens (Human), UniProt Q96RI1)	EC50	< 0.1 µM
CC[C@H]1[C@@H](O)[C@@H]2[C@H](CC[C@]3(C)[C@@H]([C@H](C)COC(=O)NS(=O)(=O)c4cccc(O)c4)CC[C@@H]23)[C@@]2(C)CC[C@@H](O)C[C@@H]12	human FXR (NR1H4) (Homo sapiens (Human), UniProt Q96RI1)	EC50	0.1 to 1 µM

Attention now turns to another entry.
EC50 for CC[C@H]1[C@@H](O)[C@@H]2[C@H](CC[C@]3(C)[C@@H]([C@H](C)CCOC(=O)NS(=O)(=O)c4ccccc4F)CC[C@@H]23)[C@@]2(C)CC[C@@H](O)C[C@@H]12 ? 0.1 to 1 µM
